# System: CP269
# methodDescription: qHTS profiling for inhibitors of Plasmodium falciparum proliferation (AID 504749); further: nearly all actives have a fitted effect of over 60% in size
# conditionDescription: P. falciparum in erythrocytes, SYBR Green DNA, 72 h; series mostly up to 28.7 µM
Records with an inconclusive call do not appear. The source made the active and inactive calls. The call rests on the fitted dose curve; in most records, active means well fitted inhibition curve with a large enough effect; inconclusive means small, poorly fitted or top-dose-only effect; inactive means flat fitted curve, though single readings scatter.
Outcomes: active, inactive

In [3]: df
Out[3]:
                                    compound  assaysystem  assignedcategory
 0  C[C@]12CCC(=O)C(O)=C1CC[C@@H]1[C@H]3CCC(=O)[C@@]3(C)CC[C@@H]12        CP269          inactive
 1  CC(=O)OCC1=C(C(=O)O)N2C(=O)[C@@H](N)[C@@H]2SC1        CP269          inactive
 2  c1ccc(C2(c3ccccc3)CC2C2=NCCN2)cc1 (centres undefined)        CP269          inactive
 3                       C1CCC(NC2CCCCC2)CC1        CP269          inactive
 4        O=[N+]([O-])c1ccc([As](=O)(O)O)cc1        CP269            active
 5                            Cc1cc(O)ccc1Cl        CP269          inactive
 6  CC(C)NC(C)Cc1ccc(I)cc1 (centres undefined)        CP269          inactive
 7                      CCCCc1ccc(C(=O)O)nc1        CP269          inactive
 8  CN(C)[C@@H]1C(=O)C(C(N)=O)=C(O)[C@@]2(O)C(=O)C3=C(O)c4c(O)cccc4[C@@](C)(O)[C@H]3[C@H](O)[C@@H]12        CP269          inactive
 9  C#CC1(O)CCC2C3CCC4=CC(=O)CCC4(C)C3CCC21C (centres undefined)        CP269          inactive
10                          O=C(O)COc1ccccc1        CP269          inactive
11    COC(=O)[C@@H](N)CCCN=C(N)N[N+](=O)[O-]        CP269          inactive
12  COC(=O)c1cncn1C(C)c1ccccc1 (centres undefined)        CP269          inactive
13  C=CCN1CC[C@]23CCCCC2[C@H]1Cc1ccc(O)cc13 (some centres undefined)        CP269          inactive

###

# methodDescription: Quantitative High-Throughput drug screen in 47 multiple myeloma cell lines against the NCATS MIPE library collection: KMS26_JCRB cell viability assay (AID 1918975); further: nearly all actives have a fitted effect of over 45% in size
# conditionDescription: KMS26 myeloma cells viability, CellTiter-Glo ATP, 48 h; series mostly up to 45.8 µM
Inconclusive results are not listed. Active and inactive are the calls of the source. Calls come from the whole dose curve; as a rule, active = well fitted cell-killing curve with a large enough effect; inconclusive = small, poorly fitted or top-dose-only effect, or effect the other way; inactive = no such curve, though single readings can be large or run the other way.
Classes used: label 1 = active, label 0 = inactive

compound	assignedCategory
C#C[C@]1(O)C=C[C@@H]2[C@@H]3CCC4=CC(=O)CC[C@@H]4[C@H]3CC[C@@]21CC	label 0
O=C(O)CNC(=O)c1c(O)c2ccccc2n(Cc2ccccc2)c1=O	label 0
C[C@@H]1[C@H](O)[C@@H](C)C=CC=CCCC=CC=CC=CC=C[C@H](O[C@H]2O[C@@H](C)[C@H](O)[C@@H](N)[C@@H]2O)CC2O[C@](O)(C[C@@H](O)[C@H](O)CC[C@@H](O)C[C@@H](O)C[C@@H](O)CC(=O)O[C@H]1C)C[C@H](O)[C@H]2C(=O)O	label 0
CC(=Cc1csc(C)n1)[C@@H]1C[C@H]2O[C@@H]2CCC[C@H](C)[C@@H](O)[C@@H](C)C(=O)C(C)(C)[C@@H](O)CC(=O)O1	label 0
CN[C@@H]1Cc2cccc3[nH]c(=O)n(c23)C1	label 0
CC=C(C)C(=O)N[C@@H](c1ccccc1)[C@@H](O)C(=O)O[C@H]1C[C@@]2(O)[C@@H](OC(=O)c3ccccc3)[C@@H]3[C@]4(OC(C)=O)CO[C@@H]4C[C@H](O)[C@@]3(C)C(=O)[C@H](OC(C)=O)C(=C1C)C2(C)C	label 0
COC[C@H]1OC(=O)c2coc3c2[C@@]1(C)C1=C(C3=O)[C@@H]2CC[C@H](O)[C@@]2(C)C[C@@H]1OC(C)=O	label 1
NC1CC1c1ccccc1 (stereo not drawn)	label 0
CCN1C[C@]2(OC(=O)c3ccccc3NC(C)=O)CC[C@H](OC)[C@@]34[C@H]5CC6[C@@H](OC)C[C@](O)(C(C[C@@H]23)[C@@H]14)[C@@]5(O)[C@@H]6OC	label 0
CC1=C(O)C(=O)C=C2C1=CC=C1[C@@]2(C)CC[C@@]2(C)[C@@H]3C[C@](C)(C(=O)O)CC[C@]3(C)CC[C@]12C	label 1
CC(N[C@H]1C[C@H]1c1ccccc1)c1ccc2c(c1)OCCO2 (stereo partly drawn)	label 1
C=CCON=C(C[C@H]1O[C@@H]2O[C@]3(C)CC[C@@H]4[C@H](C)CC[C@@H]([C@H]1C)[C@@]24OO3)[C@H]1O[C@@H]2O[C@]3(C)CC[C@H]4[C@H](C)CC[C@@H]([C@@H]1C)[C@@]24OO3	label 1
N#C[C@H](O[C@@H]1O[C@H](CO[C@@H]2O[C@H](CO)[C@H](O)[C@H](O)[C@H]2O)[C@H](O)[C@H](O)[C@H]1O)c1ccccc1	label 1
